Test system: L1210 leukemia ip in BDF1 mice, survival T/C
Experiment: NCI In Vivo Anticancer Drug Screen. Data for tumor model L1210 Leukemia (intraperitoneal) in B6D2F1 (BDF1) mice
Details: endpoint: mean survival time; dose: 100.0 mg/kg/injection; schedule: Q01DX009 (ip); vehicle: Klucel (hydroxypropylcellulose) (HPC); higher = longer survival
Toxic doses and inconclusive results are not listed.
reported.property: T/C

# example entries with known answers
COC(=O)c1ccccc1NC(=O)Nc1cccc(F)c1 : 95 % of control
CN1CCSC1=S : 100 % of control
CC(=O)NC1CCC(Br)CC1 (configuration not stated) : 105 % of control
O=C(NNC(=S)NC1CC2C=CC1C2)c1cccnc1 (configuration not stated) : 111 % of control
Cc1ccc(NC(=O)c2ccccc2C(=O)O)cc1Cl : 93 % of control
Cc1ccc(NC(=S)N2CCCCC2)cc1C : 92 % of control
Clc1ccc(N=Cc2ccccc2)cc1 : 104 % of control
S=c1nc[nH]c2ccccc12 : 93 % of control

List the reported T/C of each compound below.
1. CCOC(=O)Nc1ccc(NC(C)=O)cc1
2. Cc1ccc([N+](=O)[O-])cc1NC(=O)N(CCC#N)C1CCCCC1
3. CCOC(=O)c1ccc(NS(C)(=O)=O)cc1

Out:
104 % of control
101 % of control
95 % of control
